- assayProcedure: Mouse lung tissue binding (equilibrium dialysis, RED)
- Type: in vitro ADME
- measurementConditions: mouse lung tissue binding, % bound (Table 3)
Mouse LTB % overview
assayMetric: Mouse LTB % (%)

[
  {
    "compound": "CS(=O)(=O)c1ccc(OC(F)F)c(-c2nn(CC#N)cc2NC(=O)c2cnn3cccnc23)c1 [Example 28]",
    "assayMetric": "Mouse LTB %",
    "numericValue": 70.8
  },
  {
    "compound": "CN1CCCC1CCn1cc(S(=O)(=O)c2ccc(OC(F)F)c(-c3nn(C)cc3NC(=O)c3cnn4cccnc34)c2)cn1 (stereo in doubt) [Example 56]",
    "assayMetric": "Mouse LTB %",
    "numericValue": 91.4
  },
  {
    "compound": "CN(CCO)S(=O)(=O)c1ccc(OC(F)F)c(-c2nn(C)cc2NC(=O)c2cnn3cccnc23)c1 [Example 73]",
    "assayMetric": "Mouse LTB %",
    "numericValue": 81.8
  },
  {
    "compound": "Cn1cc(NC(=O)c2cnn3cccnc23)c(-c2cc(S(=O)(=O)c3ccncc3)ccc2OC(F)F)n1 [Example 16]",
    "assayMetric": "Mouse LTB %",
    "numericValue": 87.3
  },
  {
    "compound": "CN(C)S(=O)(=O)c1ccc(OC(F)F)c(-c2nn(C)cc2NC(=O)c2cnn3cccnc23)c1 [Example 30]",
    "assayMetric": "Mouse LTB %",
    "numericValue": 83.1
  },
  {
    "compound": "Cn1cc(NC(=O)c2cnn3cccnc23)c(-c2cc(S(=O)(=O)C3CC3)ccc2OC(F)F)n1 [Example 22]",
    "assayMetric": "Mouse LTB %",
    "numericValue": 88.7
  },
  {
    "compound": "Cn1cc(S(=O)(=O)c2ccc(OC(F)F)c(-c3nn(C)cc3NC(=O)c3cnn4cccnc34)c2)cn1 [Example 35]",
    "assayMetric": "Mouse LTB %",
    "numericValue": 86.2
  },
  {
    "compound": "Cn1cc(NC(=O)c2cnn3cccnc23)c(-c2cc(S(=O)(=O)C3CCCNC3)ccc2OC(F)F)n1 (single isomer, unassigned) [Example 37]",
    "assayMetric": "Mouse LTB %",
    "numericValue": 90.1
  },
  {
    "compound": "Cn1cc(NC(=O)c2cnn3cccnc23)c(-c2cc3c(cc2OC(F)F)NCCS3(=O)=O)n1 [Example 46]",
    "assayMetric": "Mouse LTB %",
    "numericValue": 89.9
  },
  {
    "compound": "CN(C)CCS(=O)(=O)c1ccc(OC(F)F)c(-c2nn(C)cc2NC(=O)c2cnn3cccnc23)c1 [Example 7]",
    "assayMetric": "Mouse LTB %",
    "numericValue": 78.8
  }
]
